Target: High affinity nerve growth factor receptor (Homo sapiens)
Details: at 1 µM
Exercise: state measured inhibition for each of the compounds provided.
Respond with the bare value in %.

Consider the compound `COC(=O)Nc1nc2cc(Oc3ccc(NC(=O)Nc4cccc(Br)c4)cc3)ccc2[nH]1` tested on High affinity nerve growth factor receptor (Homo sapiens); state its inhibition.
55.6

Consider the compound `CC(C)c1ccc(Nc2nccc(-c3cnn4ncccc34)n2)cc1` tested on High affinity nerve growth factor receptor (Homo sapiens); state its inhibition.
7.94

Consider the compound `COc1cccc(-n2ncc3c(N/N=C/c4ccc(C)cc4)ncnc32)c1` tested on High affinity nerve growth factor receptor (Homo sapiens); state its inhibition.
5.28

Consider the compound `Cc1ccc(O)cc1Nc1ccnc2ccc(S(C)(=O)=O)cc12` tested on High affinity nerve growth factor receptor (Homo sapiens); state its inhibition.
2.38

Consider the compound `NC(=O)c1cccc(Nc2nccc(Nc3cccc(F)c3)n2)c1` tested on High affinity nerve growth factor receptor (Homo sapiens); state its inhibition.
2.65

Consider the compound `Nc1ccc(C#Cc2cncnc2Nc2ccc(OCc3cccc(F)c3)c(Cl)c2)cc1` tested on High affinity nerve growth factor receptor (Homo sapiens); state its inhibition.
0.62

Consider the compound `CCS(=O)(=O)c1ccc(OC)c(Nc2nccc(N(C)c3ccc4c(C)n[nH]c4c3)n2)c1` tested on High affinity nerve growth factor receptor (Homo sapiens); state its inhibition.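 Further: each value is the mean percent inhibition of TRKA.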
11.7

---

Exercise: state measured inhibition for each of the compounds provided.
Biological target: Mitogen-activated protein kinase kinase kinase kinase 4 (Homo sapiens)
Conditions: at 0.1 µM
Description: GSK_PKIS: MAP4K4 mean inhibition at 0.1 uM [Nanosyn]
Respond with the bare value in %.

Hello, please tell me recorded inhibition for this one: `Cc1cc(-c2ccccn2)cc(C)c1/C=C/c1cncc(-c2nn[nH]n2)c1`
2.48

Hello, please tell me recorded inhibition for this one: `[O-][S+]1CCN(Cc2ccc(-c3ccc4ncnc(Nc5ccc(OCc6ccccc6)c(Cl)c5)c4c3)o2)CC1`
0.26

Hello, please tell me recorded inhibition for this one: `CC(C)c1ccc(Nc2nccc(-c3cnn4ncccc34)n2)cc1`
4.8

Hello, please tell me recorded inhibition for this one: `NS(=O)(=O)c1ccc(-c2cc3ccncc3cc2OCc2ccccc2)cc1`
5.89

Hello, please tell me recorded inhibition for this one: `Cc1ccc(O)cc1Nc1ccnc2ccc(S(C)(=O)=O)cc12`
8.02

Hello, please tell me recorded inhibition for this one: `NS(=O)(=O)c1cccc(-c2cc3ccncc3cc2OCc2ccccc2)c1`
7.44

Hello, please tell me recorded inhibition for this one: `OCc1ccc(-c2nc(-c3ccccn3)c(-c3ccc4c(c3)OCO4)[nH]2)cc1`
5.21

Hello, please tell me recorded inhibition for this one: `CCn1c(-c2nonc2N)nc2c(C#CC(C)(C)O)nc(OCCNC)cc21`
3.57

Hello, please tell me recorded inhibition for this one: `CC(C)c1ccc2c(c1)NC(=O)/C2=N/Nc1ccc(S(N)(=O)=O)cc1`
12.8

Hello, please tell me recorded inhibition for this one: `N#Cc1cccc(Nc2nccc(-c3cnn4ncccc34)n2)c1`
19.3

---

Exercise: state measured inhibition for each of the compounds provided.
Target: Death-associated protein kinase 1 (Homo sapiens);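 further: reported figure is the mean inhibition of DAPK1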
Settings: at 0.1 µM
Respond with the bare value in %.

Hello, please tell me recorded inhibition for this one: `Cc1ccc2c(-c3ccnc(Nc4ccc5c(c4)OCCO5)n3)c(-c3ccc(C(F)(F)F)cc3)nn2n1`
2.74

Hello, please tell me recorded inhibition for this one: `CN1CCN(C(=O)c2ccc(NC(=O)Nc3ccc(N(C)c4ccnc(Nc5ccc(CS(C)(=O)=O)cc5)n4)cc3)cc2)CC1`
2.86

Hello, please tell me recorded inhibition for this one: `O=C1Nc2ccccc2/C1=C/Nc1ccc2[nH]c(=O)[nH]c2c1`
1.92

Hello, please tell me recorded inhibition for this one: `NC(=O)c1sc(-n2cnc3ccccc32)cc1OCc1ccccc1Br`
12.3

Hello, please tell me recorded inhibition for this one: `N#Cc1c(NC(=O)c2ccccc2F)sc2c1CCCC2`
-1.42

Hello, please tell me recorded inhibition for this one: `CC(C)c1ccc(Nc2nccc(-c3cnn4ncccc34)n2)cc1`
-1.79

Hello, please tell me recorded inhibition for this one: `NS(=O)(=O)c1ccc(NC=C2C(=O)Nc3ccc4ncsc4c32)cc1`
4.96

Hello, please tell me recorded inhibition for this one: `OCc1ccc(-c2nc(-c3ccccn3)c(-c3ccc4c(c3)OCO4)[nH]2)cc1`
4.31

Hello, please tell me recorded inhibition for this one: `NS(=O)(=O)c1ccc(N/N=C2\C(=O)Nc3ccc(Cl)cc32)cc1`
-4

Hello, please tell me recorded inhibition for this one: `Cc1ccc(NC(=O)CC2CC2)cc1-c1ccc(C(=O)NCC2CC2)cc1`
11.5

Hello, please tell me recorded inhibition for this one: `COc1cccc(-n2ncc3c(N/N=C/c4ccc(S(C)(=O)=O)cc4)ncnc32)c1`
-1.65

Hello, please tell me recorded inhibition for this one: `ON=C1CCc2cc(-c3nc(C4CCNCC4)[nH]c3-c3ccncc3)ccc21`
0.46

Hello, please tell me recorded inhibition for this one: `CCS(=O)(=O)c1ccc(OC)c(Nc2nccc(N(C)c3ccc4c(C)n[nH]c4c3)n2)c1`
7.35

Hello, please tell me recorded inhibition for this one: `c1ccc(Nc2ncc(-c3ccccc3)o2)cc1`
6.27

Hello, please tell me recorded inhibition for this one: `FC(F)(F)c1ccc(-c2nn3ncccc3c2-c2ccnc(Nc3ccc4c(c3)OCCO4)n2)cc1`
1.54

Hello, please tell me recorded inhibition for this one: `C[C@@H](Oc1cc(-n2cnc3ccc(OCC4CCN(C)CC4)cc32)sc1C(N)=O)c1ccccc1C(F)(F)F`
-1.34

Hello, please tell me recorded inhibition for this one: `Cc1ccc2c(-c3ccnc(Nc4cccc(C(F)(F)F)c4)n3)c(-c3ccccc3)nn2n1`
-4.51

Hello, please tell me recorded inhibition for this one: `COC(=O)c1cncc(/C=C/c2c(C)cc(O)cc2C)c1`
4.88

Hello, please tell me recorded inhibition for this one: `CN(C)C(=O)O[C@@H]1CN[C@@H](C#Cc2cc3ncnc(Nc4ccc(OCc5cccc(F)c5)c(Cl)c4)c3s2)C1`
0.93

Hello, please tell me recorded inhibition for this one: `Cc1nc(-c2ccccc2)n2nc(NCCCN3CCOCC3)ncc12`
3.5

Hello, please tell me recorded inhibition for this one: `NC(=O)c1cccc(Nc2nccc(Nc3cccc(F)c3)n2)c1`
0.65

Hello, please tell me recorded inhibition for this one: `CC(C)c1ccc2c(c1)NC(=O)/C2=N/Nc1ccc(S(N)(=O)=O)cc1`
-0.88

Hello, please tell me recorded inhibition for this one: `COc1cc2ncnc(Nc3ccc4c(cnn4Cc4ccccc4)c3)c2cc1OC`
9.32

Hello, please tell me recorded inhibition for this one: `COc1ccc(-c2nn3ncccc3c2-c2ccnc(Nc3cccc(C(F)(F)F)c3)n2)cc1`
4.24

Hello, please tell me recorded inhibition for this one: `COc1cc2ncn(-c3cc(OCc4ccccc4S(C)(=O)=O)c(C#N)s3)c2cc1OC`
3.5

Hello, please tell me recorded inhibition for this one: `O=C1Nc2ccc(-c3cccnc3)cc2C1=Cc1cc(Br)c(O)c(Br)c1`
1.41

Hello, please tell me recorded inhibition for this one: `O=C(Nc1ccc(Oc2ccc3[nH]c(NC(=O)c4ccco4)nc3c2)cc1)Nc1cc(C(F)(F)F)ccc1F`
-1.4

Hello, please tell me recorded inhibition for this one: `O=S(=O)(CCOCc1ccc(-c2ccc3ncnc(Nc4ccc(OCc5cccc(F)c5)c(Cl)c4)c3c2)o1)c1ccccc1`
1.67

Hello, please tell me recorded inhibition for this one: `COC(=O)c1ccc2c(c1)C(=Cc1cc(Br)c(O)c(Br)c1)C(=O)N2`
9.92

Hello, please tell me recorded inhibition for this one: `COc1cccc(-n2nc(C)c3c(N/N=C(\C)c4ccncc4)ncnc32)c1`
0.32

Hello, please tell me recorded inhibition for this one: `Cc1cc(Cl)cc2c1NC(=O)C2=NNc1ccc(S(N)(=O)=O)cc1`
2.88

Hello, please tell me recorded inhibition for this one: `NS(=O)(=O)c1ccc(-c2cc3ccncc3cc2OCc2ccccc2)cc1`
1.1

Hello, please tell me recorded inhibition for this one: `CCn1c(-c2nonc2N)nc2ccc(F)cc21`
8.42

Hello, please tell me recorded inhibition for this one: `CN(c1ccc(NC(=O)Nc2ccc(OC(F)(F)F)cc2)cc1)c1ccnc(Nc2cccc(S(N)(=O)=O)c2)n1`
3.79

Hello, please tell me recorded inhibition for this one: `Nc1nccc(-c2c(-c3ccc(F)cc3)nn3cc(C(F)(F)F)ccc23)n1`
2.24

Hello, please tell me recorded inhibition for this one: `Cc1ccc(O)cc1Nc1ccnc2ccc(S(C)(=O)=O)cc12`
12.2

Hello, please tell me recorded inhibition for this one: `CCS(=O)(=O)c1ccc(OC)c(Nc2ncc(-c3cccc(OC)c3)o2)c1`
2.65

Hello, please tell me recorded inhibition for this one: `CN(C)CCCn1c(-c2nonc2N)nc2cnccc21`
4.9

Hello, please tell me recorded inhibition for this one: `CCOc1nccc2c1nc(-c1nonc1N)n2CC`
3.66

Hello, please tell me recorded inhibition for this one: `COc1cc(Nc2nccc(-c3cnn4ncccc34)n2)cc(OC)c1`
1.9

Data origin, for the record: ChEMBL document CHEMBL1961873
